The origin of these recorded values is patent US20080026996A1.

target: human PAC1 (Homo sapiens, UniProt P41586); assay: Filter binding assay, membranes of cells transiently transfected with human PAC1, 125I-labeled PACAP-27 tracer (Table 2); design: expressed in transfected cells; details: read-out: Human PAC1 Receptor Binding
Sequence (P41586 21-468): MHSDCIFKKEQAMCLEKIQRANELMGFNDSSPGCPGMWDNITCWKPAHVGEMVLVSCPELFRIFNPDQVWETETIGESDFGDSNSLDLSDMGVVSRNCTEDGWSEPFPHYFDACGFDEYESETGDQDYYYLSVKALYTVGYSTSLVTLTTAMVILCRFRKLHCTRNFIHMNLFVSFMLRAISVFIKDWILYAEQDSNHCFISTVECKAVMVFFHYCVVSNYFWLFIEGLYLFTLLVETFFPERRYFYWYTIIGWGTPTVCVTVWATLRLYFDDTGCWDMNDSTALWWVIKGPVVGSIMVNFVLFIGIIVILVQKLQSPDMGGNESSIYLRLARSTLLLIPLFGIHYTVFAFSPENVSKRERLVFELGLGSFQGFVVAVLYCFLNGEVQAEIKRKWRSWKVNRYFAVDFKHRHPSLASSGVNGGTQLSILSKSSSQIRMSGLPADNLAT
Where no end group is shown, it is not given here. The star is where a group is joined. Hexanoyl = CCCCCC(=O)*
quantity measured: IC50 (nM)
Answers are plain numbers, in nM.

{"columns": ["substance", "target under test", "scale unit", "IC50"],
 "data": [
  ["Hexanoyl-HSDAVFTDQYTRLLAKLALQKYLQSIKQKRYGGPSSGAPPPS [Agonist P192]", "human PAC1 (Homo sapiens, UniProt P41586)", "nM", 14300],
  ["Hexanoyl-HSDAVFTDNYTRLRKQVAAKKTLQSIKNKRYGGPSSGAPPPS [Agonist P131]", "human PAC1 (Homo sapiens, UniProt P41586)", "nM", 632],
  ["Hexanoyl-HSDAVFTDNYTRLRKQVAAKKYLQYIKNKRYGGPSSGAPPPS [Agonist P127]", "human PAC1 (Homo sapiens, UniProt P41586)", "nM", 209],
  ["Hexanoyl-HVDAVFTDNYTRLRKQVAAKKYLQSIKNKRYGGPSSGAPPPS [Agonist P99]", "human PAC1 (Homo sapiens, UniProt P41586)", "nM", 2060]
]}

Next up:
Data request: Name the reported IC50 value associated with the substance Hexanoyl-HSDAVFTDNYTRLLKQVAAKKYLQSIKNKRYGGPSSGAPPPS [Agonist P174]
Data returned: 621
